Ref: PubChem BioAssay

protocol-notes: SK-BR-3 cell growth inhibitors, pilot screen, 24 h, human (AID 572);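 also: compound exposure lasted between 18 and 24 h rather than exactly 24 h; 100% = carrier-treated control wells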
protocol-conditions: SK-BR-3 viability, CellTiter-Glo luminescence, at 10 µM, stronger effect = lower value
Form field: viability (one value per entry).
value-type: viability (%)

> print(dat)
                                   compound  reading
1  COc1ccc(-c2nnc(SC(C)C(=O)Nc3nccs3)n2-c2ccccc2)cc1OC (centres undefined)      105
2         O=C(CCn1c(=O)oc2ccccc21)N1CCCCCC1      112
3  CC1CCCc2sc3nc(NCc4ccco4)n4ncnc4c3c21 (centres undefined)      104
4    Cc1c(C)c2cc(Cl)c(O)c(CN3CCCCC3)c2oc1=O     97.5
